Cited source for all entries: patent US8202856B2

systemUnderTest: S1P3 receptor (Homo sapiens)
Sequence (Q99500 whole entry): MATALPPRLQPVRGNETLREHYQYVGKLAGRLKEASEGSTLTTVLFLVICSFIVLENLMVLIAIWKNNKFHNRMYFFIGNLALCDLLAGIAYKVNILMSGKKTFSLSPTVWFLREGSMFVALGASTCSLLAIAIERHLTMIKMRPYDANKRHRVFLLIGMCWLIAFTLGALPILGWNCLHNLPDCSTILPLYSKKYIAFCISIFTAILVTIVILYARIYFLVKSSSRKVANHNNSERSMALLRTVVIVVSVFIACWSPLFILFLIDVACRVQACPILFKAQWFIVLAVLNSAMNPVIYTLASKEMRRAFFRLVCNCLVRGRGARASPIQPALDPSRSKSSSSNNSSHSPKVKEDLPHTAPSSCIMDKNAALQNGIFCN
assayProcedure: 35S-GTPγS binding, membranes from CHO cells expressing S1P3
testParameters: CHO cell membranes expressing S1P3
quantityName: EC50

Would you please look over these solved cases?
>>> df
                                querysmiles               systemundertest    result
0  COCc1c(-c2nc(-c3ccc(F)cc3F)no2)nnn1-c1ccccc1F  S1P3 receptor (Homo sapiens)   > 10 µM
1  COCc1c(-c2nc(-c3ccccc3F)no2)nnn1-c1ccccc1F  S1P3 receptor (Homo sapiens)   > 30 µM
2  COCc1c(-c2nc(-c3cccnc3)no2)nnn1-c1ccccc1F  S1P3 receptor (Homo sapiens)   > 20 µM
3   Cc1c(-c2nc(-c3ccccc3)no2)nnn1-c1ccccc1F  S1P3 receptor (Homo sapiens)   > 30 µM
4  Fc1ccc(F)c(-c2noc(-c3nnn(-c4ccccc4F)c3C3CCOCC3)n2)c1  S1P3 receptor (Homo sapiens)   > 20 µM
5  Fc1ccccc1-n1nnc(-c2nc(-c3ccc4[nH]ncc4c3)no2)c1-c1ccncc1  S1P3 receptor (Homo sapiens)  0.164 µM

Exam item: Given the compound Fc1ccc(F)c(-c2noc(-c3nnn(-c4ccccc4F)c3-c3cccnc3)n2)c1 , what is its reported EC50?
Marked response: > 20 µM

Exam item: Try this compound next: COc1ccccc1-c1noc(-c2nnn(-c3ccccc3F)c2-c2ccccc2)n1
Marked response: 6.86 µM

Exam item: Same read-out for CCCCc1c(-c2nc(-c3ccccc3)no2)nnn1-c1ccccc1F ?
Marked response: 4.9 µM

Exam item: Another compound: COc1ccccc1-c1noc(-c2nnn(-c3ccccc3F)c2-c2ccncc2)n1
Marked response: > 20 µM

Exam item: Queued: Fc1ccc(-c2noc(-c3nnn(-c4ccccc4F)c3-c3ccccc3)n2)c(F)c1
Marked response: > 30 µM

Exam item: Now consider Cc1cccc(-c2noc(-c3nnn(-c4ccccc4F)c3-c3ccncc3)n2)c1 .
Marked response: 0.66 µM

Exam item: One more compound: Fc1ccc(F)c(-c2noc(-c3nnn(-c4ccccc4F)c3C3CC3)n2)c1
Marked response: > 20 µM

Exam item: Next entry: Fc1ccc(-c2noc(-c3nnn(-c4ccccc4F)c3-c3ccncc3)n2)cc1F
Marked response: > 20 µM

Exam item: Same thing, different compound: Fc1ccc(F)c(-c2noc(-c3nnn(-c4ccccc4F)c3C3CCCC3)n2)c1
Marked response: 0.033 µM

Exam item: And for COCc1c(-c2nc(-c3ccccc3)no2)nnn1-c1ccccc1F ?
Marked response: > 30 µM

Exam item: Also COCc1c(-c2nc(-c3ccc4[nH]ccc4c3)no2)nnn1-c1ccccc1F ?
Marked response: > 20 µM

Exam item: Can you check CCc1c(-c2nc(-c3cc(F)ccc3F)no2)nnn1-c1ccccc1F next?
Marked response: > 30 µM

###

systemUnderTest: S1P1 receptor (Homo sapiens, UniProt P21453)
Sequence (P21453 whole entry): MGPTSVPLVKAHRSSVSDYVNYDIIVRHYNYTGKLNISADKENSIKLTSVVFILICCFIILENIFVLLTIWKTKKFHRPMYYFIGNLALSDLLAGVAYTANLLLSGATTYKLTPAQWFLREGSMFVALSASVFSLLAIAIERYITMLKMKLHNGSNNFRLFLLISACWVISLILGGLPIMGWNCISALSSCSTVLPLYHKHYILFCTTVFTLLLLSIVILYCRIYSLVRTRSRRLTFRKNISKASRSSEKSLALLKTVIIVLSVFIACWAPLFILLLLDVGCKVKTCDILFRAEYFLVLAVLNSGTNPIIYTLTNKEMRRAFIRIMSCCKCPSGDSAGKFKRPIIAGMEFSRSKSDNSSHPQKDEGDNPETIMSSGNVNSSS
assayProcedure: 35S-GTPγS binding, membranes from CHO cells expressing S1P1
testParameters: CHO cell membranes expressing S1P1
pEC50: −log10 of the molar value. Counter-ions that a name gives are not always drawn.
quantityName: pEC50

Guide cases for pEC50, answers given:
>>> df
                                   compound  numericresult
0  Fc1ccccc1-n1nnc(-c2nc(-c3cccc(C(F)(F)F)c3)no2)c1-c1ccccc1           7.39
1  COCc1c(-c2nc(-c3ccccc3)no2)nnn1-c1ccccc1F           6.41
2  Fc1ccccc1-n1nnc(-c2nc(-c3ccc4c(c3)CNCC4)no2)c1-c1ccncc1           7.59
3  Fc1ccccc1-n1nnc(-c2nc(-c3c(F)cccc3F)no2)c1-c1ccncc1           6.97
4  COCc1c(-c2nc(-c3ccc(N)nc3)no2)nnn1-c1ccccc1F           6.32

I = Fc1cccc(-c2noc(-c3nnn(-c4ccccc4F)c3-c3ccncc3)n2)c1
II = COCCc1c(-c2nc(-c3ccccc3F)no2)nnn1-c1ccccc1F
Exam item: I or II : whose pEC50 is greater? Pick one; state its label.
Marked response: I

I = Fc1ccccc1-n1nnc(-c2nc(-c3cccc(CN4CCC4)c3)no2)c1-c1ccncc1 [Example 148, formate]
II = Cc1c(-c2nc(-c3cc(F)ccc3F)no2)nnn1-c1ccccc1Br
III = Fc1ccc(F)c(-c2noc(-c3nnn(-c4ccccc4F)c3C3CCCO3)n2)c1 (stereo not shown)
Exam item: Descending sort on pEC50 required. List the labels in the requested order.
Marked response: III, I, II
